Cited source: patent US20240116985A1

Item-by-item account of IC50
EXPERIMENTAL_SYSTEM: full-length beta-Catenin (Uniprot ID P35222) (Homo sapiens)
Construct: 10 nM full-length beta-Catenin (Uniprot ID P35222)
Sequence (P35222 whole entry): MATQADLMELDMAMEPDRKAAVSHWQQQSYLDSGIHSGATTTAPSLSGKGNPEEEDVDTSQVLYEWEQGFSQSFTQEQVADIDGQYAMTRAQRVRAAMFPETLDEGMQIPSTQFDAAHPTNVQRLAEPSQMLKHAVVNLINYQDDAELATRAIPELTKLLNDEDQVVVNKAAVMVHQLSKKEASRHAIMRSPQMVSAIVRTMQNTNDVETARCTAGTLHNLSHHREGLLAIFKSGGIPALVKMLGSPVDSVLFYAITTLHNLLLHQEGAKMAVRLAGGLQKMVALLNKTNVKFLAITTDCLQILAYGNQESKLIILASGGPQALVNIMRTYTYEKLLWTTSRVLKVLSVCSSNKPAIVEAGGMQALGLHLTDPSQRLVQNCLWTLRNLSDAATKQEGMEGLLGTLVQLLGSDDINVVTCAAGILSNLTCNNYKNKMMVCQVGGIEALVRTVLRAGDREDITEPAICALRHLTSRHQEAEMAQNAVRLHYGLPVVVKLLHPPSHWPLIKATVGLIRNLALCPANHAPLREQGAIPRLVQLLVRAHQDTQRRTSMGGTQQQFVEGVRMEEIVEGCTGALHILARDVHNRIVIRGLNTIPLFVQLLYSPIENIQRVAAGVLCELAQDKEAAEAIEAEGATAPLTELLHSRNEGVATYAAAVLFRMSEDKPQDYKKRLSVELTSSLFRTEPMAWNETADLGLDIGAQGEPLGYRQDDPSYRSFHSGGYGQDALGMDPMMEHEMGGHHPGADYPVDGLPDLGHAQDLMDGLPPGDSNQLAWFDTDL
ASSAY_SUMMARY: Fluorescence polarization IC50 (beta-catenin / 5FAM-TCF4 10-53 competition)
Format: binding
RUN_CONDITIONS: fluorescence polarization; read-out: beta-Catenin FP IC50
Give just the numeric value; nM need not be written.

# count of solved cases: 4
CC(=O)N1CCC[C@]12CC=CCCCC1(CCCC=CCCCCCC[C@@](C)(C(=O)N[C@@H](Cc3ccsc3)C(=O)N[C@@H](Cc3csc4ccccc34)C(=O)N[C@H](CO)[C@@H](C)O)NC(=O)[C@H](CCO)NC(=O)[C@H](Cc3ccccc3)NC(=O)[C@H](C)NC(=O)[C@H](C)NC(=O)[C@H](CC(=O)O)NC(=O)[C@H](CC(=O)O)NC1=O)NC(=O)[C@H](CC(C)(C)C)NC(=O)[C@H](CC(=O)O)NC2=O (some centres unmarked) : 16
CC(=O)N1CCC[C@]12CC=CCCCC1(CCCC=CCCCCCC[C@@](C)(C(=O)N[C@@H](Cc3ccccc3Cl)C(=O)N[C@@H](Cc3csc4ccccc34)C(=O)N[C@@H](CO)C(N)=O)NC(=O)[C@H](CC(C)C)NC(=O)[C@H](Cc3ccccc3)NC(=O)[C@H](C)NC(=O)[C@H](C)NC(=O)[C@H](CC(=O)O)NC(=O)[C@H](CC(=O)O)NC1=O)NC(=O)[C@H](CC(C)(C)C)NC(=O)[C@H](CC(=O)O)NC2=O (some centres unmarked) : 94.5
C[C@@H]1NC(=O)[C@H](C)NC(=O)[C@H](CN(CC(=O)O)CC(F)(F)F)NC(=O)[C@H](CC(=O)O)NC(=O)C2(CCCC=CCCCOC(=O)N3CC[C@@](C(=O)N[C@@H](Cc4ccsc4)C(=O)N[C@@H](Cc4csc5ccccc45)C(=O)N[C@@H](CCC(N)=O)C(N)=O)(C3)NC(=O)[C@H](CC(N)=O)NC(=O)[C@H](Cc3ccccc3)NC1=O)CCCC=CC[C@]1(CCCN1S(C)(=O)=O)C(=O)N[C@@H](CC(=O)O)C(=O)N[C@@H](CC(C)(C)C)C(=O)N2 (some centres unmarked) : 7
CC(=O)N1CCC[C@]12CC=CCCCC1(CCCC=CCCCOC(=O)N3CC[C@@](C(=O)N[C@@H](Cc4ccsc4)C(=O)N[C@@H](Cc4ccc(Cl)cc4)C(=O)N[C@@H](CCC(N)=O)C(N)=O)(C3)NC(=O)[C@H](CC(C)C)NC(=O)[C@H](Cc3ccccc3)NC(=O)[C@H](C)NC(=O)[C@H](C)NC(=O)[C@H](Cc3cccc(C(=O)O)c3)NC(=O)[C@H](CC(=O)O)NC1=O)NC(=O)[C@H](CC(C)(C)C)NC(=O)[C@H](CC(=O)O)NC2=O (some centres unmarked) : 12

Now consider a different compound.
Query :: Given the compound CC(=O)N1CCC[C@]12CC=CCCCC1(CCCC=CCCCCCC[C@@](C)(C(=O)N[C@@H](Cc3cccc(F)c3)C(=O)N[C@@H](Cc3csc4ccccc34)C(=O)N[C@@H](Cc3c[nH]cn3)C(N)=O)NC(=O)[C@H](CCC(N)=O)NC(=O)[C@H](Cc3ccsc3)NC(=O)[C@H](C)NC(=O)[C@H](C)NC(=O)[C@H](CCC(=O)O)NC(=O)[C@H](CC(=O)O)NC1=O)NC(=O)[C@H](C)NC(=O)[C@H](CC(=O)O)NC2=O (some centres unmarked) , what is its reported IC50?
Result :: 154
